molecular target: T1, Recombinant human EGFR-Fc (aa 1-645 of the extracellular domain of human EGFR fused to human Fc) (human, UniProt P00533 25-645); assay: SPR Biacore, EGFR645-Fc; against I1-GS10-E5 Pegylated
T1 construct: range 1-645; bought from R&D Systems; also called EGFR645-Fc; EGFR-Fc (HER-1); not shown: human Fc
readout type: Δka (fold)
Unit fold implied. Number only.

binder	readout type	number
I1-GS10-E5-GSGC pegylated (designed binder, PEG on the Cys of the GSGC tail of E5, alternative clone of I1-GS10-E5 pegylated; also called I1-GS10-E5-GSGC(4)) MGVSDVPRDLEVVAATPTSLLISWSARLKVARYYRITYGETGGNSPVQEFTVPKNVYTATISGLKPGVDYTITVYAVTRFRDYQPISINYRTEIEKGSGSGSGSGSGSGSGSGSGSVSDVPRDLEVVAATPTSLLISWWAPVDRYQYYRITYGETGGNSPVQEFTVPRDVYTATISGLKPGVDYTITVYAVTDYKPHADGPHTYHESPISINYRTEGSGCHHHHHH	Δka (fold)	1.1

Which value of Δka (fold) has been reported for I1-GS10-E5(S62C) pegylated (designed binder, PEG on Cys at position 62 of E5 (position of SEQ ID NO: 1), also called I1-GS10-E5(S62C)(6)) MGVSDVPRDLEVVAATPTSLLISWSARLKVARYYRITYGETGGNSPVQEFTVPKNVYTATISGLKPGVDYTITVYAVTRFRDYQPISINYRTEIEKGSGSGSGSGSGSGSGSGSGSVSDVPRDLEVVAATPTSLLISWWAPVDRYQYYRITYGETGGNSPVQEFTVPRDVYTATICGLKPGVDYTITVYAVTDYKPHADGPHTYHESPISINYRTEHHHHHH in the records? 0.6

These measurements were taken from patent US20180037631A1.
